Measurement target: Sphingosine 1-phosphate receptor 4 (Homo sapiens)
Procedure summary: S1P4 receptor antagonists, primary screen, cell-based (AID 1510);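 further: 0% = wells stimulated with agonist and 100% = vehicle wells without agonist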
Experimental conditions: S1P4-expressing cells, antagonist mode, reporter read-out; at 4.98 µM
The whole screen tested about 220,000 compounds, of which about 570 (0.26%) were called active. No stated cut-off is given here; in the data, active means inhibition above about 29%; inactive means the rest. The full list was thinned out, with actives kept by preference.
Labels: active, inactive

| Molecule | Classification |
| --- | --- |
| Cc1cccc(N2CCN(C(=O)c3ccccc3NC(=O)C3CCCCC3C(=O)O)CC2)c1 (stereo not drawn) | inactive |
| CCc1c(C)nc2cc(C)[nH]n2c1=O | inactive |
| CC(C)c1ccc(N2CCN(C(=O)c3ccccc3NC(=O)/C=C(\C(=O)O)c3ccccc3)CC2)cc1 | active |

###

Measurement target: Sphingosine 1-phosphate receptor 4 (Homo sapiens) (UniProt O95977)
Sequence (O95977 whole entry, looked up): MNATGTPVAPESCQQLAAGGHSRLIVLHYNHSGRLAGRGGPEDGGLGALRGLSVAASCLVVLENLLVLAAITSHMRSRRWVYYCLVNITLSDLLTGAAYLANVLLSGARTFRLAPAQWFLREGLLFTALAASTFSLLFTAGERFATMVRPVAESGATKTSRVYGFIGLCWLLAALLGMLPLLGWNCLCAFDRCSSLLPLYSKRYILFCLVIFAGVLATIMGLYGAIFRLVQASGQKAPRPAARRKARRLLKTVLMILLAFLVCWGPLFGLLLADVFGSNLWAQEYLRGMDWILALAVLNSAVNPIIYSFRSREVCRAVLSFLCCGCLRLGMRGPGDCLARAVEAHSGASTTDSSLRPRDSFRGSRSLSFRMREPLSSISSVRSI
Procedure summary: S1P4 receptor antagonists, primary screen, cell-based (AID 1510);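 further: 0% = wells stimulated with agonist and 100% = vehicle wells without agonist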
Experimental conditions: S1P4-expressing cells, antagonist mode, reporter read-out; at 4.98 µM; active compounds read high
The whole screen tested about 220,000 compounds, of which about 570 (0.26%) were called active. The sample as a whole holds a higher share of actives than the screen did.
Listed below: inhibition values for each entry.
Reported property: inhibition (%)

| Molecule | Reported property | Unit string | Observed value |
| --- | --- | --- | --- |
| Cc1ccc2cc(/C=N/Nc3ccc(C(=O)O)cc3)c(Cl)nc2c1 | inhibition | % | 4.36 |
| O=C(/C=C/c1cccc([N+](=O)[O-])c1)NCCSCc1ccco1 | inhibition | % | -14.7 |
| CN(C)CCNC(CC(=O)Nc1ccc(Cl)c(Cl)c1)C(=O)O (centres undefined) | inhibition | % | 0.14 |
| CC(=O)Nc1ccc(S(=O)(=O)NC2(C(F)(F)F)C(=O)Nc3c2c(=O)[nH]c(=O)n3Cc2ccccc2)cc1 (centres undefined) | inhibition | % | -16.6 |
| COc1cc(NC(=O)CN(C)S(=O)(=O)c2ccc3nc(C)sc3c2)cc(OC)c1 | inhibition | % | -2.8 |
| O=C(CC(O)(C(F)(F)F)C(F)(F)F)Nc1ccc(Cl)c(Cl)c1 | inhibition | % | 33.2 |
| COCC(=O)Nc1cc(C(=O)OC)cc(C(=O)OC)c1 | inhibition | % | -10.1 |
| COc1cc2c(cc1O)[C@H](Cc1ccc(Oc3cc(C[C@@H]4NCCc5cc(OC)c(O)cc54)ccc3O)cc1)NCC2 | inhibition | % | -13.1 |
| O=C(Nc1ccc(F)cc1F)N1CCCN(CCOc2ccccc2)CC1 | inhibition | % | 6.19 |
| CN(C)CCNC(=O)Cc1ccc([N+](=O)[O-])cc1 | inhibition | % | -16 |
| CCCCCC(O)c1cccc(OCc2ccc3ccccc3n2)c1 (centres undefined) | inhibition | % | -14.6 |
| O=C(O)CSc1nccn1-c1cccc(Cl)c1 | inhibition | % | -14.5 |
| O=C(O)CCC(=O)Nc1nc2ccc([N+](=O)[O-])cc2s1 | inhibition | % | -2.95 |
| Cc1onc(NC(=O)c2ccc([N+](=O)[O-])o2)c1Br | inhibition | % | 28.1 |
| CCN(CC)S(=O)(=O)c1ccc(C)c(NC(=O)COc2ccc(Br)cc2Cl)c1 | inhibition | % | -3.44 |
| CC(=O)Nc1ccc(S(=O)(=O)Nc2nccc(/C=C/c3ccccc3F)n2)cc1 | inhibition | % | -21.4 |
| COc1ccc(N2CCC(CNC(=S)Nc3c(C)cccc3C)C2)cc1 (centres undefined) | inhibition | % | 4.09 |
| Cc1c(NC(=O)c2coc(=O)c(Br)c2)c(=O)n(-c2ccccc2)n1C | inhibition | % | -7.02 |
| O=C(CC(=O)Nc1ccc(Cl)c(Cl)c1)N/N=C/c1ccc(O)cc1 | inhibition | % | -17.9 |
| O=C(/C=C/c1ccc(Cl)cc1Cl)NCc1ccco1 | inhibition | % | 3.88 |
| O=C(O)c1ccn(COc2ccc(Br)cc2)n1 | inhibition | % | 3.75 |
| CCC(C)(C)NC(=O)C(c1ccc(O)cc1)N(C(=O)Cn1nnc2ccccc21)c1ccc(NC(C)=O)cc1 (centres undefined) | inhibition | % | -9.34 |
| O=C(/C=C/c1ccc(Cl)cc1Cl)c1cccnc1 | inhibition | % | 47.2 |
| CC[C@H]1CN2CCc3cc(OC)c(OC)cc3[C@@H]2C[C@@H]1C[C@H]1NCCc2cc(OC)c(OC)cc21 | inhibition | % | 82.3 |
| CCCCCCCC(=O)NC(Nc1ccccc1OC)C(Cl)(Cl)Cl (centres undefined) | inhibition | % | 8.46 |
| C=CCOCCN(C)C1=NS(=O)(=O)c2ccccc21 | inhibition | % | -5.99 |
| Cc1cccc(NC(=O)c2ccc([N+](=O)[O-])o2)c1 | inhibition | % | 47.9 |
| O=C(Nc1nc2ccc([N+](=O)[O-])cc2s1)c1ccncc1 | inhibition | % | -29 |
| Cc1cc(NC(=O)CSCc2ccccc2C)no1 | inhibition | % | -4.86 |
| CCCCCC1CCC(c2nnc(SCC(C)=O)o2)CC1 (centres undefined) | inhibition | % | -13.8 |
| CCNC(=O)NNC(=O)C1CC(c2cccs2)=NO1 (centres undefined) | inhibition | % | -2.29 |
| CCOc1ncccc1C(=O)N(C)CC(=O)Nc1ccc(F)cc1 | inhibition | % | -7.65 |
| O=C(NCCCc1ccccc1)C1CCC(CNc2c(N3CCCCC3)c(=O)c2=O)CC1 (centres undefined) | inhibition | % | 0.07 |
| O=C(/C=C/c1ccc(Cl)c([N+](=O)[O-])c1)c1cccnc1 | inhibition | % | 2.24 |
| O=C(Nc1ccc(Cl)cc1)Nc1ccc(C(=O)N2CCOCC2)cc1 | inhibition | % | 6.4 |
| Cc1cc(-c2cccs2)nc(-n2cccc2)n1 | inhibition | % | -8.93 |
| O=C(NC(Nc1nc2ccc([N+](=O)[O-])cc2s1)(C(F)(F)F)C(F)(F)F)c1ccccc1 | inhibition | % | 41.2 |
| CC(=O)Nc1ccc(S(=O)(=O)N2CCN(c3ccc([N+](=O)[O-])c(NCCN4CCOCC4)c3)CC2)cc1 | inhibition | % | -3.22 |
| CCC(C)(C)C1CCC(=NNC(=O)c2ccc(Br)o2)CC1 (centres undefined) | inhibition | % | -7.44 |
| Cc1cc2oc(C(=O)Nc3c(C)n(C)n(-c4ccccc4)c3=O)c(C)c2cc1Cl | inhibition | % | 29.2 |
| COc1ccccc1CNC(=O)Cn1c(=O)oc2cc(Cl)ccc21 | inhibition | % | 0.8 |
| CC(=O)N1N=C(c2ccncc2)OC1(Cc1ccccc1)Cc1ccccc1 | inhibition | % | 23.2 |
| Cc1cc(C(=O)Nc2c(C)n(C)n(-c3ccccc3)c2=O)cs1 | inhibition | % | -8.59 |
| Cc1ccc(CCC(=O)Nc2ncc(Cc3cc(Cl)ccc3Cl)s2)o1 | inhibition | % | -6.95 |

###

Measurement target: Sphingosine 1-phosphate receptor 4 (Homo sapiens)
Procedure summary: S1P4 receptor antagonists, primary screen, cell-based (AID 1510);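 further: 0% = wells stimulated with agonist and 100% = vehicle wells without agonist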
Experimental conditions: S1P4-expressing cells, antagonist mode, reporter read-out; at 4.98 µM; active compounds read high
About 570 (0.26%) of roughly 220,000 compounds were called active. The full list was thinned out, with actives kept by preference.

| Compound | Measurement target | inhibition |
| --- | --- | --- |
| Cc1nn(-c2ccccc2)c(C)c1NC(=O)CCl | Sphingosine 1-phosphate receptor 4 (Homo sapiens) | -19.8% (inactive) |
| Cc1cc(/C=N/NC(N)=O)c(C)n1C1CCCCC1 | Sphingosine 1-phosphate receptor 4 (Homo sapiens) | 16.8% (inactive) |
| CCOc1ccc(C(CCc2ccccc2)NC(=O)c2ccc(OC)c(OC)c2)cc1OCC (stereo unspecified) | Sphingosine 1-phosphate receptor 4 (Homo sapiens) | 0.03% (inactive) |
| CCOc1ccc(NS(=O)(=O)c2ccc(C)c(C(N)=O)c2)cc1 | Sphingosine 1-phosphate receptor 4 (Homo sapiens) | -13.9% (inactive) |
| C=C(C)CNC(=S)Nc1ccc(S(=O)(=O)Nc2cnc3ccccc3n2)cc1 | Sphingosine 1-phosphate receptor 4 (Homo sapiens) | 2.29% (inactive) |
| CC(C)(C)c1ccc(/C=C2\Oc3c(ccc(O)c3CN3CCN(CCO)CC3)C2=O)cc1 | Sphingosine 1-phosphate receptor 4 (Homo sapiens) | 12.8% (inactive) |
| CS(=O)(=O)c1ccc(Cl)c(NC(=O)Nc2ccccc2)c1 | Sphingosine 1-phosphate receptor 4 (Homo sapiens) | 17.2% (inactive) |
| O=S1(=O)CCC(NC(=S)SCc2ccccc2Br)C1 (stereo unspecified) | Sphingosine 1-phosphate receptor 4 (Homo sapiens) | -3.75% (inactive) |
| CCOC(=O)Cc1ncccc1C(=O)Nc1ccc(OC(F)(F)F)cc1 | Sphingosine 1-phosphate receptor 4 (Homo sapiens) | -25.3% (inactive) |
| NC(=O)N/N=C\c1cccs1 | Sphingosine 1-phosphate receptor 4 (Homo sapiens) | -18.6% (inactive) |
| CN(C(=O)CSc1nnc(Nc2ccccc2)s1)C1CCS(=O)(=O)C1 (stereo unspecified) | Sphingosine 1-phosphate receptor 4 (Homo sapiens) | -10.1% (inactive) |
